Listed here: compounds with reported Ki for human 5-HT7b receptor (Homo sapiens, UniProt P34969).
State the answer as a number, implicitly in nM.

# compound, Ki / nM
rows = [
    ("O=C1CC(c2c[nH]c3ccc(F)cc23)C(=O)N1CCCN1CC=C(c2c[nH]c3ncccc23)CC1 (stereo not drawn)", 1130),
]

Query: Observed Ki on human 5-HT7b receptor (Homo sapiens, UniProt P34969) for O=C1CC(c2c[nH]c3ccccc23)C(=O)N1CCCCN1CC=C(c2c[nH]c3ncccc23)CC1 (stereo not drawn) , please.
Sequence (P34969 1-432 limits assumed): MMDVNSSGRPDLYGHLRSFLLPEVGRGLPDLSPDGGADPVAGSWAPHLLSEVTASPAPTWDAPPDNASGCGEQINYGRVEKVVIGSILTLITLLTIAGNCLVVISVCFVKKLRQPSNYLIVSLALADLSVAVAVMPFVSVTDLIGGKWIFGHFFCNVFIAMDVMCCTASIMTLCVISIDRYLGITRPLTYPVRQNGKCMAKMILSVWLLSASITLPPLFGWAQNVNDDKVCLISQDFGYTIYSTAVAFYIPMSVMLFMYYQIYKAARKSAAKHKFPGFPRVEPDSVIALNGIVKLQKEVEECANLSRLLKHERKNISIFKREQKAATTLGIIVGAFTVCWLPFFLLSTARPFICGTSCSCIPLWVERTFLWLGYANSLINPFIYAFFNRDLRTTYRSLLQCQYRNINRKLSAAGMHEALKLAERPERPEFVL
Result: 1420

Query: Observed Ki on human 5-HT7b receptor (Homo sapiens, UniProt P34969) for COc1ccc2[nH]cc(C3CC(=O)N(CCCN4CC=C(c5c[nH]c6ncccc56)CC4)C3=O)c2c1 (stereo not drawn) , please.
Result: 1530

###

# system: α1-adrenoceptor
# assay_info: ADRA1 receptor binding assay ([3H]-prazosin, rat cortex)
# cond: read-out: Ki ± SEM α1
value_type: pKi
Interpret pKi as the negative base-10 log of the concentration measured in mol/L.

Answered examples (5):
# compound, system, value_type, value
rows = [
    ("COc1ccc2[nH]cc(C3CC(=O)N(CCCN4CC=C(c5c[nH]c6ncccc56)CC4)C3=O)c2c1 (stereo not drawn)", "α1-adrenoceptor", "pKi", 6.58),
    ("COc1ccc2[nH]cc(C3CC(=O)N(CCN4CC=C(c5c[nH]c6ncccc56)CC4)C3=O)c2c1 (stereo not drawn)", "α1-adrenoceptor", "pKi", 6.50),
    ("O=C1CC(c2c[nH]c3ccccc23)C(=O)N1CCCCN1CC=C(c2c[nH]c3ncccc23)CC1 (stereo not drawn)", "α1-adrenoceptor", "pKi", 7.06),
    ("O=C1CC(c2c[nH]c3ccc(F)cc23)C(=O)N1CCN1CC=C(c2c[nH]c3ncccc23)CC1 (stereo not drawn)", "α1-adrenoceptor", "pKi", 6.34),
    ("O=C1CC(c2c[nH]c3ccccc23)C(=O)N1CCN1CC=C(c2c[nH]c3ncccc23)CC1 (stereo not drawn)", "α1-adrenoceptor", "pKi", 6.44),
]

Query: What does the record list as pKi for Cc1ccc(N(CC2=NCCN2)c2cccc(O)c2)cc1 [phentolamine, reference compound] ?
Result: 7.96

###

# system: human D2 receptor (Homo sapiens)
# Sequence (P14416 whole entry): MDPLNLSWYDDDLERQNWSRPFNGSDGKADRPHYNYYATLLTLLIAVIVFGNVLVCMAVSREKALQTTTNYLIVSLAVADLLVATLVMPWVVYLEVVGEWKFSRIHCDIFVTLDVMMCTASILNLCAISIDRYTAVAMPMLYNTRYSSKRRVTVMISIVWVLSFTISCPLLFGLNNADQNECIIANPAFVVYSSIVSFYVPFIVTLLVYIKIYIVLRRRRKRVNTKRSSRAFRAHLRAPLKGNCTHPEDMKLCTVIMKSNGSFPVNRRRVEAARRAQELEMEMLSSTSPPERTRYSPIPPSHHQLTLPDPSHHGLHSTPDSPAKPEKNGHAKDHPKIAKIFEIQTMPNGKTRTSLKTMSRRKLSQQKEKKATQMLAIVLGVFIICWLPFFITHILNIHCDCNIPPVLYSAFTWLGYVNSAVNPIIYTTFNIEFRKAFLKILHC
# assay_info: D2 receptor binding assay
# cond: cloned human D2 receptor; read-out: Ki ± SEM D2
Below is a list of entries, each paired with its recorded Ki value.
State the answer as a number, implicitly in nM.

# compound, uom, Ki
data = [
    ("O=C1CC(c2c[nH]c3ccc(F)cc23)C(=O)N1CCCN1CC=C(c2c[nH]c3ccccc23)CC1 (stereo not drawn)", "nM", 56),
]

Query: Observed Ki on human D2 receptor (Homo sapiens) for O=C1CC(c2c[nH]c3ccc(F)cc23)C(=O)N1CCCN1CC=C(c2c[nH]c3ncccc23)CC1 (stereo not drawn) , please.
Result: 51

Query: Observed Ki on human D2 receptor (Homo sapiens) for O=C1CC(c2c[nH]c3ccccc23)C(=O)N1CCCCN1CC=C(c2c[nH]c3ncccc23)CC1 (stereo not drawn) , please.
Result: 78

###

# system: human serotonin transporter (Homo sapiens)
# Construct: purchased PerkinElmer; host or cells: HEK-293
# Sequence (P31645 whole entry): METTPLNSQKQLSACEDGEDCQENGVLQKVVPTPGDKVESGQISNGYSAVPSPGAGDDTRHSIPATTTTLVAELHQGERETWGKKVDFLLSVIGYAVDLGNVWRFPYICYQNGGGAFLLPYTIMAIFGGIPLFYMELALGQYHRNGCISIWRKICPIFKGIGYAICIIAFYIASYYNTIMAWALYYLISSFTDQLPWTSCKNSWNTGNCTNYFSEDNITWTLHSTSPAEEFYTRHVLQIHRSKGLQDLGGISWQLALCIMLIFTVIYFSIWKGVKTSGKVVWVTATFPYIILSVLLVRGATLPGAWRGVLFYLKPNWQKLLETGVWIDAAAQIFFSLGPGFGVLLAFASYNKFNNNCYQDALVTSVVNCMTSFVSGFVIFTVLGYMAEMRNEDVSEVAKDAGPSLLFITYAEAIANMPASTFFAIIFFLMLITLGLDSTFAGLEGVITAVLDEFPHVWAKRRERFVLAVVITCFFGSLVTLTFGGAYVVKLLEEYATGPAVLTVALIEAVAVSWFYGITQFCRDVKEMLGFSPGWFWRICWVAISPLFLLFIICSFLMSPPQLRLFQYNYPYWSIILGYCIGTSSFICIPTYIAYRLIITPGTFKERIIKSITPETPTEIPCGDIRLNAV
# assay_info: Serotonin transporter radioligand binding ([3H]-imipramine, HEK-293 membranes)
# cond: displacement of [3H]-imipramine, HEK-293 membranes; mean ± SEM of three experiments; read-out: Ki ± SEM SERT
value_type: Ki (nM)
State the answer as a number, implicitly in nM.

Answered examples (4):
# compound, system, Ki, nM
rows = [
    ("O=C1CC(c2c[nH]c3ccccc23)C(=O)N1CCCCN1CC=C(c2c[nH]c3ncccc23)CC1 (centres unmarked) [Compound 4]", "human serotonin transporter (Homo sapiens)", 47),
    ("O=C1CC(c2c[nH]c3ccc(F)cc23)C(=O)N1CCN1CC=C(c2c[nH]c3ncccc23)CC1 (centres unmarked) [Compound 12]", "human serotonin transporter (Homo sapiens)", 252),
    ("O=C1CC(c2c[nH]c3ccc(F)cc23)C(=O)N1CCCCN1CC=C(c2c[nH]c3ncccc23)CC1 (centres unmarked) [Compound 10]", "human serotonin transporter (Homo sapiens)", 77.6),
    ("O=C1CC(c2c[nH]c3ccccc23)C(=O)N1CCN1CC=C(c2c[nH]c3ncccc23)CC1 (centres unmarked) [Compound 6]", "human serotonin transporter (Homo sapiens)", 245),
]

Kindly consider the entry below.
Query: What does the record list as Ki for O=C1CC(c2c[nH]c3ccc(F)cc23)C(=O)N1CCCN1CC=C(c2c[nH]c3ncccc23)CC1 (centres unmarked) [Compound 11] ?
Result: 9.2
